- tested on: RARβ (Homo sapiens)
- Sequence (P10826 1-448 isoform P10826-2): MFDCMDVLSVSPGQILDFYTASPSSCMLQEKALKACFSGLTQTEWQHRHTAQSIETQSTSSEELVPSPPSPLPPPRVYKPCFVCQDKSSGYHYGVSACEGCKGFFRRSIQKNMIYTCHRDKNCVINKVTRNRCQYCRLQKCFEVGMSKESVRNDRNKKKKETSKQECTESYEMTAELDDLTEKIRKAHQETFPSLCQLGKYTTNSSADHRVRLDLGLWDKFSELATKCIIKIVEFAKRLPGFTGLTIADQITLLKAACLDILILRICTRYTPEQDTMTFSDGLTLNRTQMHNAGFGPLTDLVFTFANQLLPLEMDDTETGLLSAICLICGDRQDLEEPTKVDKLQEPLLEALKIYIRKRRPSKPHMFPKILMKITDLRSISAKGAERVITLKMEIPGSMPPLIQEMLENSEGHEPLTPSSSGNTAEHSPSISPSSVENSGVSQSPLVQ
- assay details: co-transfection assay (RAR/RXR agonist activity, luciferase reporter in CV-1 cells)
- measurement conditions: potency = EC50, agonist, 40 hours, read-out: RARβ Pot
measure: pEC50
Please keep in mind that pEC50 is minus log10 of the molar concentration; only the number is needed.

The cases that follow already have their pEC50 on record.
>>> df
                                   compound            tested_on  reported_measurement
0  CC(/C=C/C=C1\CCc2c1ccc1c2C(C)(C)CCC1(C)C)=C\C(=O)O [Compound 135b]  RARβ (Homo sapiens)                  7.28
1  CC(/C=C/CC1CCCc2cc3c(cc21)C(C)(C)CCC3(C)C)=C\C(=O)O (racemic) [Compound 124b]  RARβ (Homo sapiens)                  7.48
2  CC1(C)CCC(C)(C)c2cc3c(cc21)CCC/C3=N\Nc1ccc(C(=O)O)cc1 [Compound 152b]  RARβ (Homo sapiens)                  8.10
3  CC(/C=C/C=C1\CCCc2cc3c(cc21)C(C)(C)CCC3(C)C)=C\C(=O)O [Compound 109b]  RARβ (Homo sapiens)                  8.52
4  CC(/C=C/C=C1/CCC(C)(C)c2cc3c(cc21)C(C)(C)CCC3(C)C)=C\C(=O)O [Compound 106b]  RARβ (Homo sapiens)                  7.70

Query :: Find pEC50 for CC(/C=C/C(=O)N1CCc2cc3c(cc21)C(C)(C)CCC3(C)C)=C\C(=O)O [Compound 141b] on RARβ (Homo sapiens) and write it down.
Result :: 7.49

Query :: Find pEC50 for CC(/C=C/C=C1/CCCc2cc3c(cc21)C(C)(C)CCC3(C)C)=C\C(=O)O [Compound 101b] on RARβ (Homo sapiens) and write it down.
Result :: 8.10
